System: SK-OV-3 ovarian
Run description: NCI tumour cell line growth inhibition, 48 h; in the data active means GI50 below about 0.43 µM; inactive means the rest
Would you mind answering with one of these outcomes? active, inactive

| Compound | Group |
| --- | --- |
| C[C@]12CC/C(=N\N)C[C@@H]1CC[C@@H]1[C@@H]2CC[C@]2(C)/C(=N/N)CC[C@@H]12 | inactive |

q: Answer briefly: the call reported for Nc1ccc(-c2nc3ccccc3[nH]2)c(O)c1 in this assay.
a: inactive

q: Answer briefly: the call reported for COc1ccc(C2=CC(c3cc(OC)c(OC)c(OC)c3)NC(=O)N2)cc1OC (stereo not drawn) in this assay.
a: inactive

q: Answer briefly: the call reported for CNc1nc(C)c(-c2nc(Nc3cccc(S(N)(=O)=O)c3)ncc2F)s1 in this assay.
a: active

q: Answer briefly: the call reported for C=C1C(=O)O[C@H]2[C@H]1CC/C(CNS(=O)(=O)c1ccc3ccccc3c1)=C\CC[C@@]1(C)O[C@@H]21 in this assay.
a: inactive

q: Answer briefly: the call reported for CN(C)c1ccc(C(=O)c2ccc(N(C)C)c(N)c2)cc1N in this assay.
a: inactive

q: Answer briefly: the call reported for Cn1c(=O)c(Oc2cccc(F)c2)cc2cnc(NC3CCOCC3)nc21 in this assay.
a: inactive

q: Answer briefly: the call reported for CN(C)CCCNc1c2ccccc2nc2cccc([N+](=O)[O-])c12 in this assay.
a: active

----------
Tested on: K-562 leukemia
Run description: NCI tumour cell line growth inhibition, 48 h; in the data active = GI50 below about 0.43 µM; inactive = the rest
Would you mind answering with one of these outcomes? active, inactive

Worked set:
| Compound | Group |
| --- | --- |
| c1cc(C2CCCCC2)ccc1OCCCCCCN1CCNCC1 | inactive |
| NC(N)=N/N=C/c1c(-c2cccs2)nc2sccn12 | inactive |
| CCOC(=O)c1cc2c(n1Cc1cc(OC)cc(OC)c1)-c1oncc1CCC2 | active |
| OCc1cccc(-c2ccc3ncc(-c4nc(NC5CC5)ncc4F)n3c2)c1 | inactive |
| CCc1ccc(-c2ccc(=O)n(-c3ccc(S(N)(=O)=O)cc3)n2)cc1 | active |
| NC(=O)C(Br)CBr (stereo not given) | inactive |

// next entry
q: Answer briefly: the call reported for CCCCCCCCCCCCCCCC(=O)OCC1OC(n2cnc3c(=S)nc(N)[nH]c32)C(OC(=O)CCCCCCCCCCCCCCC)C1OC(=O)CCCCCCCCCCCCCCC (stereo not given) in this assay.
a: inactive

----------
Each entry below lists one item and its recorded TGI value.
Test system: SW-620 colon
Run description: NCI tumour cell line growth inhibition, 48 h

Before answering, review these 4 worked examples.
| Molecule | TGI |
| --- | --- |
| CC1(C)CN(c2ccccc2)C(=O)C1OC(=O)[C@@]1(C)C[C@@H]2C=C[C@H]1C2 (stereo not given in full) | > 100 µM |
| COC(=O)Nc1nc2ccc(Oc3ccc(NC(=O)Nc4cccc(Br)c4)cc3)cc2[nH]1 | 17.6 µM |
| O=C1C=C2CO[C@H]3OC[C@H](O)[C@@H]1[C@@H]23 | > 100 µM |
| CS(=O)(=O)N(CCC#N)c1ccc(/C=N/NC(=O)CC(=O)Nc2cccc(Cl)c2)cc1 | > 100 µM |

From here, focus on the item given below.
// field: TGI; key: OCC(O)C1OC2CC1Nc1ccccc1N2 (stereo not given) ; value = > 100 µM
